Taken from paper PMC6001238.

test system: S. aureus VRSA; assay: MIC, broth microdilution, vancomycin-resistant S. aureus (VRSA); type: cell-based, Staphylococcus aureus; settings: VRSA; ratio of MIC of vancomycin and MIC of analogue
reportedProperty: MIC-fold improvement vs. vancomycin
Reply briefly: the number, and no unit.

{"compound": "CNC(CC(C)C)C(=O)NC1C(=O)NC(CC(N)=O)C(=O)NC2C(=O)NC3C(=O)NC(C(=O)NC(C(=O)NCC(=O)Nc4ccc(-c5cnnn5C5OC(COC(C)=O)C(OC(C)=O)C(OC(C)=O)C5OC(C)=O)cc4)c4cc(O)cc(O)c4-c4cc3ccc4O)C(O)c3ccc(c(Cl)c3)Oc3cc2cc(c3OC2OC(CO)C(O)C(O)C2OC2CC(C)(N)C(O)C(C)O2)Oc2ccc(cc2Cl)C1O (centres unmarked) [Vanc-78]", "experimentalTarget": "S. aureus VRSA", "number": 32}

Attention now shifts to the item below.
Entry under review: CNC(CC(C)C)C(=O)NC1C(=O)NC(CC(N)=O)C(=O)NC2C(=O)NC3C(=O)NC(C(=O)NC(C(=O)NCCNC(=O)C4c5ccccc5-c5ccccc54)c4cc(O)cc(O)c4-c4cc3ccc4O)C(O)c3ccc(c(Cl)c3)Oc3cc2cc(c3OC2OC(CO)C(O)C(O)C2OC2CC(C)(N)C(O)C(C)O2)Oc2ccc(cc2Cl)C1O (centres unmarked) [Vanc-46] . Reported MIC-fold improvement vs. vancomycin? 16

* * *

tested on: human T-lymphocyte (CEM) cells; test: Cytostatic activity, CEM cell proliferation; assay type: cell-based; details: Homo sapiens, CCRF-CEM, 72 h; mean ± SD of three experiments; highest concentration tested 250 µM; 3 days; read-out: Toxicity (IC50) CEM
pIC50: −log10 of the molar value.
Here, each record is paired with measured pIC50 data.

Some solved entries appear below for comparison.
{"compound": "CN(C)c1cc(NC(=O)CNC(C)(C)C)c(O)c2c1C[C@H]1C[C@H]3[C@H](N(C)C)C(O)=C(C(N)=O)C(=O)[C@@]3(O)C(O)=C1C2=O [Tigecycline, reference compound]", "pIC50": 5.15}
{"compound": "CCCCCCCCCC(=O)N[C@@H](Cc1c[nH]c2ccccc12)C(=O)N[C@H](CC(N)=O)C(=O)N[C@@H](CC(=O)O)C(=O)N[C@@H]1C(=O)NCC(=O)N[C@@H](CCCN)C(=O)N[C@@H](CC(=O)O)C(=O)N[C@H](C)C(=O)N[C@@H](CC(=O)O)C(=O)NCC(=O)N[C@H](CO)C(=O)N[C@@H]([C@H](C)CC(=O)O)C(=O)N[C@@H](CC(=O)c2ccccc2N)C(=O)O[C@@H]1C [Daptomycin, reference compound]", "pIC50": "< 3.60"}

Attention now shifts to the item below.
Entry under review: CC(=O)NC[C@H]1CN(c2ccc(N3CCOCC3)c(F)c2)C(=O)O1 [Linezolid, reference compound] . Reported pIC50? < 3.60

* * *

Here, each record is paired with measured MIC-fold improvement vs. vancomycin data.
system: E. faecalis VRE 53; assay: MIC, broth microdilution, vancomycin-resistant E. faecalis VRE 53 (VanA); type: cell-based, Enterococcus faecalis; conditions: VRE 53; ratio of MIC of vancomycin and MIC of analogue
Reply briefly: the number, and no unit.

Some solved entries appear below for comparison.
{"structureNotation": "CCCCCCc1ccc(NC(=O)CNC(=O)[C@H]2NC(=O)[C@H]3NC(=O)[C@H](NC(=O)[C@@H]4NC(=O)[C@H](CC(N)=O)NC(=O)[C@H](NC(=O)[C@@H](CC(C)C)NC)[C@H](O)c5ccc(c(Cl)c5)Oc5cc4cc(c5O[C@@H]4O[C@H](CO)[C@@H](O)[C@H](O)[C@H]4O[C@H]4C[C@](C)(N)[C@H](O)[C@H](C)O4)Oc4ccc(cc4Cl)[C@H]3O)c3ccc(O)c(c3)-c3c(O)cc(O)cc32)cc1", "number": 128}
{"structureNotation": "CN[C@H](CC(C)C)C(=O)N[C@H]1C(=O)N[C@@H](CC(N)=O)C(=O)N[C@H]2C(=O)N[C@H]3C(=O)N[C@H](C(=O)N[C@H](C(=O)NCCNC(=O)/C=C/c4ccc(NS(=O)(=O)c5ccc(Cl)cc5Cl)cc4)c4cc(O)cc(O)c4-c4cc3ccc4O)[C@H](O)c3ccc(c(Cl)c3)Oc3cc2cc(c3O[C@@H]2O[C@H](CO)[C@@H](O)[C@H](O)[C@H]2O[C@H]2C[C@](C)(N)[C@H](O)[C@H](C)O2)Oc2ccc(cc2Cl)[C@H]1O", "number": 32}
{"structureNotation": "CN[C@H](CC(C)C)C(=O)N[C@H]1C(=O)N[C@@H](CC(N)=O)C(=O)N[C@H]2C(=O)N[C@H]3C(=O)N[C@H](C(=O)N[C@H](C(=O)NCCNC(=O)/C=C/c4ccc(OC)cc4)c4cc(O)cc(O)c4-c4cc3ccc4O)[C@H](O)c3ccc(c(Cl)c3)Oc3cc2cc(c3O[C@@H]2O[C@H](CO)[C@@H](O)[C@H](O)[C@H]2O[C@H]2C[C@](C)(N)[C@H](O)[C@H](C)O2)Oc2ccc(cc2Cl)[C@H]1O", "number": 8}
{"structureNotation": "CN[C@H](CC(C)C)C(=O)N[C@H]1C(=O)N[C@@H](CC(N)=O)C(=O)N[C@H]2C(=O)N[C@H]3C(=O)N[C@H](C(=O)N[C@H](C(=O)NCC(=O)Nc4ccc(Oc5ccccc5)cc4)c4cc(O)cc(O)c4-c4cc3ccc4O)[C@H](O)c3ccc(c(Cl)c3)Oc3cc2cc(c3O[C@@H]2O[C@H](CO)[C@@H](O)[C@H](O)[C@H]2O[C@H]2C[C@](C)(N)[C@H](O)[C@H](C)O2)Oc2ccc(cc2Cl)[C@H]1O", "number": 64}

Entry under review: CN[C@H](CC(C)C)C(=O)N[C@H]1C(=O)N[C@@H](CC(N)=O)C(=O)N[C@H]2C(=O)N[C@H]3C(=O)N[C@H](C(=O)N[C@H](C(=O)NCC(=O)Nc4ccc(NS(=O)(=O)c5ccccc5)cc4)c4cc(O)cc(O)c4-c4cc3ccc4O)[C@H](O)c3ccc(c(Cl)c3)Oc3cc2cc(c3O[C@@H]2O[C@H](CO)[C@@H](O)[C@H](O)[C@H]2O[C@H]2C[C@](C)(N)[C@H](O)[C@H](C)O2)Oc2ccc(cc2Cl)[C@H]1O . Reported MIC-fold improvement vs. vancomycin? 32

* * *

test system: E. faecalis VRE 53; assay: MIC, broth microdilution, vancomycin-resistant E. faecalis VRE 53 (VanA); type: cell-based, Enterococcus faecalis; conditions: Enterococcus faecalis VRE 53 (vancomycin-resistant); read-out: MIC
Here, each record is paired with measured MIC data.
Output spec: scalar in µM, unitless text.

Some solved entries appear below for comparison.
{"structureNotation": "CN[C@H](CC(C)C)C(=O)N[C@H]1C(=O)N[C@@H](CC(N)=O)C(=O)N[C@H]2C(=O)N[C@H]3C(=O)N[C@H](C(=O)N[C@H](C(=O)NCC(=O)Nc4ccc(C)cc4C)c4cc(O)cc(O)c4-c4cc3ccc4O)[C@H](O)c3ccc(c(Cl)c3)Oc3cc2cc(c3O[C@@H]2O[C@H](CO)[C@@H](O)[C@H](O)[C@H]2O[C@H]2C[C@](C)(N)[C@H](O)[C@H](C)O2)Oc2ccc(cc2Cl)[C@H]1O", "quantityUnit": "µM", "MIC": 25}
{"structureNotation": "CN[C@H](CC(C)C)C(=O)N[C@H]1C(=O)N[C@@H](CC(N)=O)C(=O)N[C@H]2C(=O)N[C@H]3C(=O)N[C@H](C(=O)N[C@H](C(=O)NCC(=O)Nc4ccc(NS(=O)(=O)c5ccccc5)cc4)c4cc(O)cc(O)c4-c4cc3ccc4O)[C@H](O)c3ccc(c(Cl)c3)Oc3cc2cc(c3O[C@@H]2O[C@H](CO)[C@@H](O)[C@H](O)[C@H]2O[C@H]2C[C@](C)(N)[C@H](O)[C@H](C)O2)Oc2ccc(cc2Cl)[C@H]1O", "quantityUnit": "µM", "MIC": 12.5}

Entry under review: CN[C@H](CC(C)C)C(=O)N[C@H]1C(=O)N[C@@H](CC(N)=O)C(=O)N[C@H]2C(=O)N[C@H]3C(=O)N[C@H](C(=O)N[C@H](C(=O)NCC(=O)Nc4ccc(Cl)cc4)c4cc(O)cc(O)c4-c4cc3ccc4O)[C@H](O)c3ccc(c(Cl)c3)Oc3cc2cc(c3O[C@@H]2O[C@H](CO)[C@@H](O)[C@H](O)[C@H]2O[C@H]2C[C@](C)(N)[C@H](O)[C@H](C)O2)Oc2ccc(cc2Cl)[C@H]1O . Reported MIC? 12.5

* * *

Here, each record is paired with measured IC50 data.
test system: human cervix carcinoma (HeLa) cells; test: Cytostatic activity, HeLa cell proliferation; type: cell-based; details: mean ± SD of three experiments; highest concentration tested 250 µM; 4 days; read-out: Toxicity (IC50) HeLa
Output spec: scalar in µM, unitless text.

{"structureNotation": "CN[C@H](CC(C)C)C(=O)N[C@H]1C(=O)N[C@@H](CC(N)=O)C(=O)N[C@H]2C(=O)N[C@H]3C(=O)N[C@H](C(=O)N[C@H](C(=O)NCC(=O)Nc4ccc(C)cc4Cl)c4cc(O)cc(O)c4-c4cc3ccc4O)[C@H](O)c3ccc(c(Cl)c3)Oc3cc2cc(c3O[C@@H]2O[C@H](CO)[C@@H](O)[C@H](O)[C@H]2O[C@H]2C[C@](C)(N)[C@H](O)[C@H](C)O2)Oc2ccc(cc2Cl)[C@H]1O", "experimentalTarget": "human cervix carcinoma (HeLa) cells", "IC50 [µM]": 158}

Entry under review: CN[C@H](CC(C)C)C(=O)N[C@H]1C(=O)N[C@@H](CC(N)=O)C(=O)N[C@H]2C(=O)N[C@H]3C(=O)N[C@H](C(=O)N[C@H](C(=O)NCC(=O)Nc4ccc(Cl)cc4)c4cc(O)cc(O)c4-c4cc3ccc4O)[C@H](O)c3ccc(c(Cl)c3)Oc3cc2cc(c3O[C@@H]2O[C@H](CO)[C@@H](O)[C@H](O)[C@H]2O[C@H]2C[C@](C)(N)[C@H](O)[C@H](C)O2)Oc2ccc(cc2Cl)[C@H]1O . Reported IC50? 91
